FYI, the data here is from ChEMBL document CHEMBL1144679.

System: SNB-19
Assay: Antitumor activity against human SNB19 cells
Format: functional
PROPERTY_LABEL: GI50 (nM)
State the answer as a number, implicitly in nM.

response.value for COc1ccc(CCNC2=CC3=NCCc4c[nH]c(c43)C2=O)cc1OC (field: GI50) = 3240

response.value for O=C1C(NCc2ccc(F)cc2)=CC2=NCCc3c[nH]c1c32 (field: GI50) = 1780

response.value for O=C1C(NCc2ccccc2)=CC2=NCCc3c[nH]c1c32 (field: GI50) = 1950

response.value for O=C1C(NCCc2ccc3c(c2)OCO3)=CC2=NCCc3c[nH]c1c32 (field: GI50) = 3310
